tested on: IGR37-GP cells (Dabrafenib-resistant); assay: Kinase inhibitor library screening, PrestoBlue cell viability, 1 or 10 μM, 72 h; details: IGR37 GP; 1μΜ; 72 h; in %
Give measured Cell viability in kinase inhibitor library screening, IGR37 GP, 1μΜ for each item. Keep answers brief.
Numbers only.

In the examples that follow, each entry is paired with its recorded Cell viability in kinase inhibitor library screening, IGR37 GP, 1μΜ.
Oc1ccc(-c2nc(-c3ccncc3)c(-c3ccc(F)cc3)[nH]2)cc1 : 104.9
CO[C@H]1C[C@@H]2CC[C@@H](C)[C@@](O)(O2)C(=O)C(=O)N2CCCC[C@H]2C(=O)O[C@H]([C@H](C)C[C@@H]2CC[C@@H](OP(C)(C)=O)[C@H](OC)C2)CC(=O)[C@H](C)/C=C(\C)[C@@H](O)[C@@H](OC)C(=O)[C@H](C)C[C@H](C)/C=C/C=C/C=C/1C [Deforolimus (Ridaforolimus)] : 90.2
COc1cccc2cc(-c3nc([C@H]4CC[C@H](C(=O)O)CC4)n4ncnc(N)c34)[nH]c12 : 81.3
Nc1ccc(C(=O)Nc2cccc(-c3nc(N4CCOCC4)c4oc5ncccc5c4n3)c2)cn1 : 56.3
O=C1NC(=O)/C(=C\c2ccc3nccnc3c2)S1 : 91.2

# map each compound to its Cell viability in kinase inhibitor library screening, IGR37 GP, 1μΜ
1. COc1cc(OC)c(/C=C/S(=O)(=O)Cc2ccc(OC)c(NCC(=O)O)c2)c(OC)c1
2. Cc1cc(C(C)Nc2ccccc2)c2nc(N3CCOCC3)cc(=O)n2c1 (centres unmarked)
3. CNC(=O)Nc1ccc(-c2nc(N3CC4CCC(C3)O4)c3cnn(C4CCC5(CC4)OCCO5)c3n2)cc1
4. COC(=O)Nc1ccc(-c2nc(N3CCOCC3)c3cnn(C4CCN(Cc5cccnc5)CC4)c3n2)cc1
5. CCCS(=O)(=O)Nc1ccc(F)c(C(=O)c2c[nH]c3ncc(Cl)cc23)c1F
6. CC[C@@H]1C(=O)N(C)c2cnc(Nc3ccc(C(=O)N[C@H]4CC[C@H](N5CCN(CC6CC6)CC5)CC4)cc3OC)nc2N1C(C)C

Solution:
1. 62.5
2. 93.0
3. 43.3
4. 77.7
5. 97.0
6. 75.9

Here are 3 compounds. What values of Cell viability in kinase inhibitor library screening, IGR37 GP, 1μΜ were reported for them?
1. C[C@@H](Oc1cc(-n2cnc3ccc(CN4CCN(C)CC4)cc32)sc1C(N)=O)c1ccccc1C(F)(F)F
2. COc1ccc(COc2cc3oc(=O)c4cc(C(C)O)ccc4c3cc2OC)cc1 (centres unmarked)
3. COc1ccc(-c2ccc3c(N4CCOCC4)nc(N4C[C@@H](C)O[C@@H](C)C4)nc3n2)cc1CO

Solution:
1: 91.5; 2: 87.7; 3: 76.2

###

test system: IGR37-XP cells (Vemurafenib-resistant); experiment: Kinase inhibitor library screening, PrestoBlue cell viability, 1 or 10 μM, 72 h; settings: IGR37 XP, 1μΜ; in %
For each record, write down the corresponding cell viability (kinase inhibitor library screening).
Give bare numbers.

// solved cases for cell viability (kinase inhibitor library screening) follow
COc1cc2nccc(Oc3ccc(NC(=O)Nc4ccc(F)cc4F)c(F)c3)c2cc1OC [Ki8751] : 88.9
COc1cc2/c(=N/c3ccc(Br)cc3F)nc[nH]c2cc1OCC1CCN(C)CC1 [Vandetanib (Zactima)] : 94.5

Go through the items and report each one's cell viability (kinase inhibitor library screening).
1. COc1cc2nccc(Oc3ccc(NC(=O)C4(C(=O)Nc5ccc(F)cc5)CC4)cc3)c2cc1OC [XL-184 free base (Cabozantinib)]
2. CNC(=O)c1cc(COc2nnc(Nc3ccc(Cl)cc3)c3ccoc23)ccn1 [Telatinib (BAY 57-9352)]

Solution:
1. 90.6
2. 98.1

###

Exercise: state measured cell viability (kinase inhibitor library screening) for each of the compounds provided.
tested on: 501Mel-GP cells (Dabrafenib-resistant); experiment: Kinase inhibitor library screening, PrestoBlue cell viability, 1 or 10 μM, 72 h; conditions: 501Mel GP, 10μΜ, 72 h
Numbers only, in %.

The examples below pair each entry with its known result.
COc1ccc2c(Oc3ccc(NC(=O)c4c(C)n(CC(C)(C)O)n(-c5ccccc5)c4=O)nc3)ccnc2c1 [AMG458] : 70.8
CCCCOc1c(C(=O)c2c(F)cc(C)cc2F)c[nH]c2nncc1-2 [BMS-265246] : 52.8
Cc1ncc(-c2ccnc(Nc3ccc(S(C)(=O)=O)cc3)n2)n1C(C)C [AZD5438] : 93.9

Dear colleague, could you please provide cell viability (kinase inhibitor library screening) for the compounds listed below?
1. O=C(Nc1cccc(Cl)c1)Nc1ncc(CCNc2ncnc3ccsc23)s1 [SNS-314]
2. O=C(Nc1ccc(OC(F)(F)F)cc1)c1sccc1NCc1ccnc2ccccc12 [OSI-930]
3. Cc1[nH]c(/C=C2\C(=O)Nc3ccc(S(=O)(=O)Cc4c(Cl)cccc4Cl)cc32)c(C)c1C(=O)N1CCC[C@@H]1CN1CCCC1 [PHA-665752]
4. COc1cc(N2CCC(N3CCN(C)CC3)CC2)ccc1Nc1ncc(Cl)c(Nc2ccccc2S(=O)(=O)C(C)C)n1 [TAE684 (NVP-TAE684)]

Solution:
58.4
73.5
-0.7
-0.0599

Look at each compound and report its cell viability (kinase inhibitor library screening).
1. CN(C)c1ccc(-c2nc3ncc(Cl)c(N4CCN(CC(=O)Nc5nccs5)CC4)c3[nH]2)cc1 [CCT129202]
2. N#Cc1c(O)c2c(-c3ccc(-c4ccccc4O)cc3)csc2[nH]c1=O [A-769662]
3. CN(C[C@@H]1COCCO1)S(=O)(=O)Nc1ccc2ccc3ncc(-c4cnn(C)c4)cc3c(=O)c2c1 [MK-2461]

Solution:
[41.1, 87.9, 45.5]

###

System: 501Mel-XP cells (Vemurafenib-resistant)
Assay: Kinase inhibitor library screening, PrestoBlue cell viability, 1 or 10 μM, 72 h
Settings: 501Mel XP; 1μΜ; 72 h; in %
Method: After 72 h of treatment, cell viability was assessed using the PrestoBlue Cell Viability Reagent (ThermoFisher Scientific). Measurements were performed with the CLARIOstar Monochromator microplate reader (BMG Labtech). Kinase inhibitor library screening. […] Drugs were added at 2 different concentrations, 1 and 10 μM, for 72 h and cell viability was assessed using the PrestoBlue Cell Viability assay. […] Each cell line was analyzed at least in duplicate. […]
Lab note: cut-off is 90. Strictly less in cell viability, 501Mel XP, 1μΜ is fulfilled. Exactly 90 or more is not fulfilled.

Some entries whose results are on file:
C[C@@H]1CCN(C(=O)CC#N)C[C@@H]1N(C)c1ncnc2[nH]ccc12 : not fulfilled
COc1cc2c(N3CCN(C(=O)Nc4ccc(OC(C)C)cc4)CC3)ncnc2cc1OCCCN1CCCCC1 : not fulfilled
O=C(NOCC(O)CO)c1cc(Br)c(F)c(F)c1Nc1ccc(I)cc1F (stereo not shown) : fulfilled

Shifting focus to the compound that follows.
Exercise: Regarding COc1cccc(-c2cc(=O)c3ccccc3o2)c1N , kindly confirm whether its cell viability, 501Mel XP, 1μΜ is beneath 90.
Solution: not fulfilled

###

Tested on: 501Mel-GP cells (Dabrafenib-resistant)
Test: Kinase inhibitor library screening, PrestoBlue cell viability, 1 or 10 μM, 72 h
Details: 501Mel GP, 1μΜ, 72 h
Protocol: After 72 h of treatment, cell viability was assessed using the PrestoBlue Cell Viability Reagent (ThermoFisher Scientific). Measurements were performed with the CLARIOstar Monochromator microplate reader (BMG Labtech). Kinase inhibitor library screening. […] Drugs were added at 2 different concentrations, 1 and 10 μM, for 72 h and cell viability was assessed using the PrestoBlue Cell Viability assay. […] Each cell line was analyzed at least in duplicate. […]
measurement.type: cell viability (kinase inhibitor library screening) (%)
Numbers only, in %.

Examples from the recorded data:
COc1cc(N2CCC(N3CCN(C)CC3)CC2)ccc1Nc1ncc(Cl)c(Nc2ccccc2S(=O)(=O)C(C)C)n1 : 112.8
O=C(O)[C@]1(Cc2cccc(Nc3nccs3)n2)CC[C@@H](Oc2cccc(Cl)c2F)CC1 : 83.4

// each molecule listed below needs its cell viability (kinase inhibitor library screening)
1. O=C(Nc1ccc(OC(F)(F)F)cc1)c1sccc1NCc1ccnc2ccccc12
2. CNC(=O)c1cc(Oc2ccc(NC(=O)Nc3ccc(Cl)c(C(F)(F)F)c3)c(F)c2)ccn1

Solution:
[96.5, 96.7]

Each molecule below has a recorded value; state its cell viability (kinase inhibitor library screening).
1. Cc1cnc(NC(=O)Nc2cc(Br)c(C)cc2OC[C@@H]2CNCCO2)cn1
2. Cn1cc(-c2ccc3nnc(Sc4ccc5ncccc5c4)n3n2)cn1
3. Clc1ccc(C2(c3ccc(-c4cn[nH]c4)cc3)CCNCC2)cc1

Solution:
1: 91.7; 2: 82.6; 3: 93.8

Kindly give each listed record's cell viability (kinase inhibitor library screening).
1. Cc1cc(Nc2cc(N3CCN(C)CC3)nc(Sc3ccc(NC(=O)C4CC4)cc3)n2)n[nH]1
2. Nc1nccc(Oc2ccc(NC(=O)c3c[nH]cc(-c4ccc(F)cc4)c3=O)cc2F)c1Cl
3. O=C(O)c1ccc(Nc2ncc3c(n2)-c2ccc(Cl)cc2C(c2c(F)cccc2F)=NC3)cc1
4. Cc1csc(-c2nnc(Nc3ccc(Oc4ncccc4-c4ccnc(N)n4)cc3)c3ccccc23)c1
5. C[C@@H]1CN(CC(=O)Nc2ccc3c(c2)Cc2cccc(-c4cc(=O)cc(N5CCOCC5)o4)c2S3)C[C@H](C)O1

Solution:
85.8
90.0
86.0
90.4
103.1

// input: 4 molecules below; output: cell viability (kinase inhibitor library screening) for each
1. CCCCCCCCCCCCc1ccc(S(=O)(=O)Nc2nncs2)cc1
2. CCN1CCN(C(=O)Cc2ccc(Nc3ncc(F)c(Nc4ccc(C(=O)Nc5ccccc5Cl)cc4)n3)cc2)CC1
3. O=C(Nc1cccc(Cl)c1)Nc1ncc(CCNc2ncnc3ccsc23)s1
4. CC(C)(C)c1cnc(CSc2cnc(NC(=O)C3CCNCC3)s2)o1

Solution:
115.7
99.5
79.1
31.8
